For each record, write down the corresponding IC50 (ug/ml) HSV.
Test system: HSV-1
ASSAY_METHOD_TEXT: HSV Antiviral (ELISA) assay
Format: cell-based
CONDITION_SET: HSV-1 in Vero cells
Procedure: Vero cells (ATCC #CCL-81) are plated on 96-well tissue culture plates at 3.5×10^4 cells per 100 μl tissue culture DMEM (Dulbecco's modified Eagle media) supplemented with 2% fetal bovine serum (FBS) in each well. After overnight incubation @ 37° C. […] Antiviral activity (IC50) of the test compound is determined by comparing the flourescence obtained in absence of compound to that obtained in the presence of compound.

Which IC50 (ug/ml) HSV is reported for this compound? "COc1ccccc1CNC(=S)Nc1ccc(NC(=O)c2csnn2)cc1"
>10 µg/mL

Which IC50 (ug/ml) HSV is reported for this compound? "O=C(CN1CCOCC1)Nc1ccc(NC(=S)Nc2ccc(NC(=O)c3ccco3)cc2)cc1Cl"
>10 µg/mL

Which IC50 (ug/ml) HSV is reported for this compound? CC(NC(=S)Nc1ccc(NC(=O)c2csnn2)cc1)c1ccccc1 (stereo not shown)
>10 µg/mL

Which IC50 (ug/ml) HSV is reported for this compound? "O=C(Nc1ccc(NC(=S)NCc2ccc(Cl)c(Cl)c2)cc1)c1cscn1"
9 µg/mL

----------
System: HSV-1
ASSAY_METHOD_TEXT: HSV Antiviral (ELISA) assay
Type: cell-based
CONDITION_SET: HSV-1 in Vero cells
ENDPOINT_NAME: IC50 (ug/ml) HSV

Which IC50 (ug/ml) HSV is reported for this compound? O=C(Nc1ccc(NC(=S)Nc2cccc(O)c2)cc1)c1ccco1 [Example 474]
>10 µg/mL

Which IC50 (ug/ml) HSV is reported for this compound? O=C(Nc1ccc(NC(=S)Nc2cc(N3CCC(O)C3)cc(C(F)(F)F)c2)cc1)c1csnn1 (centres unmarked) [Example 595]
>10 µg/mL

Which IC50 (ug/ml) HSV is reported for this compound? CC(=O)Nc1cc(Cl)cc(NC(=S)Nc2ccc(NC(=O)c3csnn3)cc2)c1 [Example 644]
>10 µg/mL

Which IC50 (ug/ml) HSV is reported for this compound? Cc1ccc(NC(=S)Nc2ccc(NC(=O)c3ccccn3)cc2)cc1Cl [Example 236]
>10 µg/mL

Which IC50 (ug/ml) HSV is reported for this compound? O=C(Nc1ccc(NC(=S)Nc2ccc(Cl)c(C(F)(F)F)c2)cc1)c1ccccn1 [Example 379]
>10 µg/mL

Which IC50 (ug/ml) HSV is reported for this compound? COc1cc(OC)c(NC(=S)Nc2ccc(NC(=O)c3nnsc3-c3ccccc3)cc2)cc1Cl [Example 281]
>10 µg/mL

Which IC50 (ug/ml) HSV is reported for this compound? Nc1cc(Cl)cc(NC(=S)Nc2ccc(NC(=O)c3ccco3)cc2)c1 [Example 435]
10 µg/mL

Which IC50 (ug/ml) HSV is reported for this compound? CC(O)c1cccc(NC(=S)Nc2ccc(NC(=O)c3ccco3)cc2)c1 (centres unmarked) [Example 472]
>10 µg/mL

Which IC50 (ug/ml) HSV is reported for this compound? O=C(Nc1ccc(NC(=S)NCCc2ccc(F)c(F)c2)cc1)c1csnn1 [Example 716]
>10 µg/mL

Which IC50 (ug/ml) HSV is reported for this compound? O=C(Nc1ccc(NC(=S)NCCc2ccc(Cl)c(Cl)c2)cc1)c1ccco1 [Example 718]
6 µg/mL

Which IC50 (ug/ml) HSV is reported for this compound? NNC(=O)c1cccc(NC(=S)Nc2ccc(NC(=O)c3ccco3)cc2)c1 [Example 447]
>10 µg/mL

Which IC50 (ug/ml) HSV is reported for this compound? O=C(Nc1ccc(NC(=S)Nc2ccc(SC(F)(F)F)c(Cl)c2)cc1)c1ccco1 [Example 551]
>10 µg/mL

Which IC50 (ug/ml) HSV is reported for this compound? O=C(Nc1ccc(NC(=S)NNc2cccc(Cl)c2)cc1)c1ccco1 [Example 528]
3.2 µg/mL

Which IC50 (ug/ml) HSV is reported for this compound? COc1cc(OC)c(NC(=S)Nc2ccc(NC(=O)c3nnsc3-c3ccoc3)cc2)cc1Cl [Example 280]
>10 µg/mL

Which IC50 (ug/ml) HSV is reported for this compound? CN(C)c1c(Cl)cccc1NC(=S)Nc1ccc(NC(=O)c2csnn2)cc1 [Example 503]
8 µg/mL

Which IC50 (ug/ml) HSV is reported for this compound? COc1ccc(Br)cc1CCNC(=S)Nc1ccc(NC(=O)c2csnn2)cc1 [Example 682]
>10 µg/mL

Which IC50 (ug/ml) HSV is reported for this compound? COc1cc(OC)c(NC(=S)Nc2ccc(NC(=O)c3ccc(C)s3)cc2)cc1Cl [Example 145]
2 µg/mL

Which IC50 (ug/ml) HSV is reported for this compound? COc1cc(OC)c(NC(=S)Nc2ccc(NC(=O)c3ccnc4ccccc34)cc2)cc1Cl [Example 225]
1 µg/mL

Which IC50 (ug/ml) HSV is reported for this compound? COc1cc(OC)c(NC(=S)Nc2ccc(NC(=O)c3ccc4ccccc4n3)cc2)cc1Cl [Example 159]
>10 µg/mL

Which IC50 (ug/ml) HSV is reported for this compound? CCCCN(C)c1cc(NC(=S)Nc2ccc(NC(=O)c3csnn3)cc2)cc(C(F)(F)F)c1 [Example 597]
>10 µg/mL

Which IC50 (ug/ml) HSV is reported for this compound? CN(C)c1cc(Cl)cc(NC(=S)Nc2ccc(NC(=O)c3ccco3)cc2)c1 [Example 524]
4 µg/mL

Which IC50 (ug/ml) HSV is reported for this compound? O=C(Nc1ccc(NC(=S)NCc2ccc3c(c2)OCO3)cc1)c1csnn1 [Example 541]
7 µg/mL

Which IC50 (ug/ml) HSV is reported for this compound? CN(C)CCSCC(=O)Nc1ccc(NC(=S)Nc2ccc(NC(=O)c3ccco3)cc2)cc1Cl [Example 396]
>10 µg/mL

Which IC50 (ug/ml) HSV is reported for this compound? O=C(Nc1ccc(NC(=S)NCCOc2cc(C(F)(F)F)ccc2F)cc1)c1csnn1 [Example 737]
>10 µg/mL

Which IC50 (ug/ml) HSV is reported for this compound? O=C(Nc1ccc(NC(=S)Nc2ccc3[nH]ncc3c2)cc1)c1ccco1 [Example 481]
>10 µg/mL

Which IC50 (ug/ml) HSV is reported for this compound? O=C(Nc1ccc(NC(=S)NCCc2cc(F)cc(F)c2)cc1)c1csnn1 [Example 720]
>10 µg/mL

Which IC50 (ug/ml) HSV is reported for this compound? CN(C)c1ccc(NC(=S)Nc2ccc(NC(=O)c3ccccn3)cc2)cc1Cl [Example 350]
>10 µg/mL

Which IC50 (ug/ml) HSV is reported for this compound? O=C(Nc1ccc(NC(=S)NCc2cc(C(F)(F)F)cc(C(F)(F)F)c2)cc1)c1csnn1 [Example 542]
>10 µg/mL

Which IC50 (ug/ml) HSV is reported for this compound? O=C(Nc1ccc(NC(=S)Nc2ccc3[nH]nnc3c2)cc1)c1ccco1 [Example 526]
>10 µg/mL
